Molecular target: RNP (ribonucleoprotein)
Experiment: AtheNA, Ab 12.5 ug/ml
READOUT LABEL: Athena reading (relative luminescence units)
Answer with a bare number; do not write a unit.

BINDER | MEASUREMENT
CH235_4A (antibody, from a related filing, V domains shown) VH: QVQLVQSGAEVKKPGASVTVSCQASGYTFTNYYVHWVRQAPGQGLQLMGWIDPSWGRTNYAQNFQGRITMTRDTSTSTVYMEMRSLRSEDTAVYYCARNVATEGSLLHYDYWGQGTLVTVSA VL: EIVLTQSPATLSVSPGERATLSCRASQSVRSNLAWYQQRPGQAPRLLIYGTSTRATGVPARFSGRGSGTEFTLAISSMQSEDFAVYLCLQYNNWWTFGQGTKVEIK | 6
CH240_4A/293i (antibody, from a related filing, V domains shown) VH: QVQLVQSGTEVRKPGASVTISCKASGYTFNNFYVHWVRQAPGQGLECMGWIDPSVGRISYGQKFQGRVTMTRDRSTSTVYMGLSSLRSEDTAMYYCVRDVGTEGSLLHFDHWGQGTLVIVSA VL: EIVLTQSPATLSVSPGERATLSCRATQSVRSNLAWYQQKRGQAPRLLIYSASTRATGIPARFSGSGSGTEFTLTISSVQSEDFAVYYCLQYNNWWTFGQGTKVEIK | 8
CH241 (antibody, from a related filing, V domains shown) VH: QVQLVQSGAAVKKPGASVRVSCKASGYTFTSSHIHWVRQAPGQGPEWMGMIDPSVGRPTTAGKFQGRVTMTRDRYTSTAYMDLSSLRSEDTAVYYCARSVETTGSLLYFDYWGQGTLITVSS VL: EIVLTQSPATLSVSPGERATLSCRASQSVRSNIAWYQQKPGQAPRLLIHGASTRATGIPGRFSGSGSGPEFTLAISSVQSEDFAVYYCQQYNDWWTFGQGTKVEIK | 5

// below: Athena reading (relative luminescence units) requested for another binder
Exercise: Quick one: Athena reading (relative luminescence units) of CH236_4A/293i (antibody, from a related filing, V domains shown) VH: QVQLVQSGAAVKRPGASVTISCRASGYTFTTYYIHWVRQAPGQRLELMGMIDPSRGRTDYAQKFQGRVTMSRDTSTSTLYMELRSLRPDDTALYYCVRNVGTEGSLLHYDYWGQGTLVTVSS VL: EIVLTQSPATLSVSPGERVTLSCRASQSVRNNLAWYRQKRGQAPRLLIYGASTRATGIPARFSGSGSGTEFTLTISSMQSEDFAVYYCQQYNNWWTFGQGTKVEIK ?
Key: 78
